Consider the following molecules and their measured ALT Donor 1 readings.
# Test system: human Liver-Chip (primary human hepatocytes)
# assayInfo: Liver-Chip alanine transaminase (ALT) release in top channel effluent (ELISA)
# Type: cell-based
# measurementSetup: lowest concentration causing an increase in ALT protein; donor 1
# Method: Cycles 1 to 4 tested 6–8 concentrations in duplicate for each of 10–13 drugs. […] For each of these datasets, we performed curve-fitting analyses and calculated the Root Mean Square Error between the “true” and estimated IC50 parameter. […] The drug dosing concentrations were determined from the unbound human Cmax of each drug. […] Dosing concentrations were then back calculated such that the unbound fraction in media would reflect relevant multiples of unbound human Cmax (Supplementary Data 1). […]
quantityKind: ALT Donor 1

structurestring=COC(c1ccccc1)(c1ccccc1)[C@H](Oc1nc(C)cc(C)n1)C(=O)O result=">300 multiples of the unbound human Cmax"
structurestring=N[C@@H]1[C@H]2CN(c3nc4c(cc3F)c(=O)c(C(=O)O)cn4-c3ccc(F)cc3F)C[C@@H]12 result="100 multiples of the unbound human Cmax"
structurestring=O=c1[nH]c(=O)n([C@@H]2O[C@H](CO)[C@@H](O)[C@@H]2F)cc1I result=">300 multiples of the unbound human Cmax"

###

# Tested on: human Liver-Chip
# assayInfo: Liver-Chip DILI prediction: minimum toxic concentration and margin of safety (MOS)-like figure;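 also: Toxic concentration is the lowest across albumin IC50 and ALT and morphology endpoints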
# measurementSetup: free IC50 concentration in the assay divided by total concentration of drug in human plasma at Cmax; donor 1
quantityKind: Chip MOS donor 1

compound=Cc1cc2c(s1)Nc1ccccc1N=C2N1CCN(C)CC1 result=>20
compound=C[C@H]1COc2c(N3CCN(C)CC3)c(F)cc3c(=O)c(C(=O)O)cn1c23 result=>11.3
compound="CN(C)CCC(c1ccc(Cl)cc1)c1ccccn1 (stereo not shown)" result=>200
compound=COC(c1ccccc1)(c1ccccc1)[C@H](Oc1nc(C)cc(C)n1)C(=O)O result=>3

###

# System: human Liver-Chip
# assayInfo: Liver-Chip DILI prediction: minimum toxic concentration and margin of safety (MOS)-like figure;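 also: Toxic concentration is the lowest across albumin IC50 and ALT and morphology endpoints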
# measurementSetup: free IC50 concentration in the assay divided by total concentration of drug in human plasma at Cmax; both donors
quantityKind: Chip MOS both donors

molecule="COC(c1ccccc1)(c1ccccc1)[C@H](Oc1nc(C)cc(C)n1)C(=O)O [Ambrisentan]" result=>10
molecule="C[C@H]1COc2c(N3CCN(C)CC3)c(F)cc3c(=O)c(C(=O)O)cn1c23 [Levofloxacin]" result=>33.7
molecule="Cc1cc2c(s1)Nc1ccccc1N=C2N1CCN(C)CC1 [Olanzapine]" result=>20
molecule="O=c1[nH]c(=O)n([C@@H]2O[C@H](CO)[C@@H](O)[C@@H]2F)cc1I [FIRU]" result=>108
molecule="Nc1c2c(nc3ccccc13)CCCC2 [Tacrine]" result=>12

###

Below: a set of entries, each annotated with reported Morphology Donor 2.
# Tested on: human Liver-Chip (hepatocytes and non-parenchymal cells)
# measurementSetup: human
# Excerpt: At least four to six brightfield images were acquired per chip for morphology analysis. […] Brightfield images were acquired across three fields of view on days 1, 3, and 7 for each cycle. […] Images were then scored zero to four by blinded individuals (n = 2) based on severity of agglomeration of cell debris for both channels. […] cells. […] A score of 0 represents no cytotoxicity detected, with an intact monolayer and <1% of the cells are dead. […]
quantityKind: Morphology Donor 2

molecule="O=c1[nH]c(=O)n([C@@H]2O[C@H](CO)[C@@H](O)[C@@H]2F)cc1I [Fialuridine]" experimentaltarget="human Liver-Chip (hepatocytes and non-parenchymal cells)" quantitykind="Morphology Donor 2" result=">300 multiples of the unbound human Cmax"
molecule="Cc1cn([C@H]2C=C[C@@H](CO)O2)c(=O)[nH]c1=O [Stavudine]" experimentaltarget="human Liver-Chip (hepatocytes and non-parenchymal cells)" quantitykind="Morphology Donor 2" result="300 unbound human Cmax multiplier"
molecule="C[C@H]1COc2c(N3CCN(C)CC3)c(F)cc3c(=O)c(C(=O)O)cn1c23 [Levofloxacin]" experimentaltarget="human Liver-Chip (hepatocytes and non-parenchymal cells)" quantitykind="Morphology Donor 2" result=">45 multiples of the unbound human Cmax"
molecule="Cc1c(C)c2c(c(C)c1O)CCC(C)(COc1ccc(CC3SC(=O)NC3=O)cc1)O2 (stereo not drawn) [Troglitazone]" experimentaltarget="human Liver-Chip (hepatocytes and non-parenchymal cells)" quantitykind="Morphology Donor 2" result="300 multiples of the unbound human Cmax"
molecule="N[C@@H]1[C@H]2CN(c3nc4c(cc3F)c(=O)c(C(=O)O)cn4-c3ccc(F)cc3F)C[C@@H]12 [Trovafloxacin]" experimentaltarget="human Liver-Chip (hepatocytes and non-parenchymal cells)" quantitykind="Morphology Donor 2" result="100 multiples of the unbound human Cmax"
molecule="CC(c1cc2ccccc2s1)N(O)C(N)=O (stereo not drawn) [Zileuton]" experimentaltarget="human Liver-Chip (hepatocytes and non-parenchymal cells)" quantitykind="Morphology Donor 2" result="> 300 unbound human Cmax multiplier"

Each recorded value in this set is attributed to paper PMC9727064.
